We begin with a simple list: items and their reported DNA adduct formation, Adducts per 10^7 Bases.
- Test system: human hepatocytes
- procedure-summary: 4-ABP- and HAA-DNA adduct formation in freshly cultured human hepatocytes
- condition: human hepatocytes donor HH C; carcinogen 10 μM; 24 h incubation

Answered cases to consult:
{"structure-smiles-string": "Nc1nc2c(nc(Nc3ccc4c(n3)[nH]c3ccccc34)n2[C@H]2C[C@H](O)[C@@H](CO)O2)c(=O)[nH]1", "observed": "44.4 ± 5.6 Adducts per 10^7 Bases"}
{"structure-smiles-string": "Cn1c(Nc2nc3c(=O)[nH]c(N)nc3n2[C@H]2C[C@H](O)[C@@H](CO)O2)nc2c3cccnc3ccc21", "observed": "18.3 ± 0.8 Adducts per 10^7 Bases"}
{"structure-smiles-string": "Cn1c(Nc2nc3c(=O)[nH]c(N)nc3n2[C@H]2C[C@H](O)[C@@H](CO)O2)nc2ncc(-c3ccccc3)cc21", "observed": "7.5 ± 1.6 Adducts per 10^7 Bases"}
{"structure-smiles-string": "Cc1cnc2ccc3c(nc(Nc4nc5c(=O)[nH]c(N)nc5n4[C@H]4C[C@H](O)[C@@H](CO)O4)n3C)c2n1", "observed": "13.9 ± 0.2 Adducts per 10^7 Bases"}

Next molecule, please.
Query: So what does the record say about DNA adduct formation, Adducts per 10^7 Bases for Nc1nc2c(nc(Nc3ccc(-c4ccccc4)cc3)n2[C@H]2C[C@H](O)[C@@H](CO)O2)c(=O)[nH]1 ?
Result: 38.8 ± 4.8 Adducts per 10^7 Bases

---

- Test system: human hepatocytes
- procedure-summary: 4-ABP- and HAA-DNA adduct formation in freshly cultured human hepatocytes
- condition: human hepatocytes donor HH F; carcinogen 10 μM; 24 h incubation
quantity-kind: DNA adduct formation, Adducts per 10^7 Bases (Adducts per 10^7 Bases)
Kindly answer with a numeric value in Adducts per 10^7 Bases, unit omitted.

Answered examples (3):
{"compound": "Nc1nc2c(nc(Nc3ccc4c(n3)[nH]c3ccccc34)n2[C@H]2C[C@H](O)[C@@H](CO)O2)c(=O)[nH]1 [dG-C8-AαC, N-(Deoxyguanosin-8-yl)-AαC]", "observed": 72.0}
{"compound": "Nc1nc2c(nc(Nc3ccc(-c4ccccc4)cc3)n2[C@H]2C[C@H](O)[C@@H](CO)O2)c(=O)[nH]1 [dG-C8-4-ABP, N-(Deoxyguanosin-8-yl)-4-aminobiphenyl]", "observed": 49.0}
{"compound": "Cc1cnc2ccc3c(nc(Nc4nc5c(=O)[nH]c(N)nc5n4[C@H]4C[C@H](O)[C@@H](CO)O4)n3C)c2n1 [dG-C8-MeIQx, N-(deoxyguanosin-8-yl)-MeIQx]", "observed": 19.0}

Query: Tell me the measured DNA adduct formation, Adducts per 10^7 Bases of Cn1c(Nc2nc3c(=O)[nH]c(N)nc3n2[C@H]2C[C@H](O)[C@@H](CO)O2)nc2ncc(-c3ccccc3)cc21 [dG-C8-PhIP, N-(deoxyguanosin-8-yl)-PhIP] , please.
Result: 14.0

---

Quick reference: DNA adduct formation, Adducts per 10^7 Bases of the listed items.
- Test system: human hepatocytes
- procedure-summary: 4-ABP- and HAA-DNA adduct formation in freshly cultured human hepatocytes
- condition: human hepatocytes donor HH G; carcinogen 10 μM; 24 h incubation
Output spec: scalar in Adducts per 10^7 Bases, unitless text.

Example entries and their recorded answers appear below.
{"structure-smiles-string": "Nc1nc2c(nc(Nc3ccc(-c4ccccc4)cc3)n2[C@H]2C[C@H](O)[C@@H](CO)O2)c(=O)[nH]1", "units-of-measure": "Adducts per 10^7 Bases", "observed": 87.9}
{"structure-smiles-string": "Nc1nc2c(nc(Nc3ccc4c(n3)[nH]c3ccccc34)n2[C@H]2C[C@H](O)[C@@H](CO)O2)c(=O)[nH]1", "units-of-measure": "Adducts per 10^7 Bases", "observed": 82.0}
{"structure-smiles-string": "Cc1cnc2ccc3c(nc(Nc4nc5c(=O)[nH]c(N)nc5n4[C@H]4C[C@H](O)[C@@H](CO)O4)n3C)c2n1", "units-of-measure": "Adducts per 10^7 Bases", "observed": 16.1}

Query: Need DNA adduct formation, Adducts per 10^7 Bases, item Cn1c(Nc2nc3c(=O)[nH]c(N)nc3n2[C@H]2C[C@H](O)[C@@H](CO)O2)nc2ncc(-c3ccccc3)cc21
Result: 30.6

Query: // next record Cn1c(Nc2nc3c(=O)[nH]c(N)nc3n2[C@H]2C[C@H](O)[C@@H](CO)O2)nc2c3cccnc3ccc21
Result: 13.5
